Taken from patent US11802111B2.

For each record, write down the corresponding pIC50.
# Tgt: human MGL from HeLa cells (Homo sapiens (Human), UniProt Q99685)
# Sequence (Q99685 whole entry): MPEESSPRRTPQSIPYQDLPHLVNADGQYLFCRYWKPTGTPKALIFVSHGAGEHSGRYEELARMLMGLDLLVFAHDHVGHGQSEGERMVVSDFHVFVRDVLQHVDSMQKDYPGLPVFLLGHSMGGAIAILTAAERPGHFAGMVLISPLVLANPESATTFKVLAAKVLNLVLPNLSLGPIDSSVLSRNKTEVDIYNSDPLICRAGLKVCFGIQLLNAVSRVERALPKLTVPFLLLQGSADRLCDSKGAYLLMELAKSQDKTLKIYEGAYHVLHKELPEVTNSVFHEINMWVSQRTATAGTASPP
# Test Summary: MGL in vitro activity assay ([glycerol-1,3-3H]-oleoyl glycerol hydrolysis, activated carbon filtration)
# Condition Info: 300 nM [Glycerol-1,3-3H]-oleoyl glycerol, one hour
One number for each entry, as −log10 of the molar value.

Fill in pIC50 for each of the 5 compounds listed.
1. COc1nc(OC2CCC3(CC2)CN(C(=O)[C@H]2C[C@@](C)(O)C2)C3)ccc1C1CC1 [Example 455]
2. C[C@]1(O)C[C@@H](C(=O)N2CC3(CCC(c4cccn5ccnc45)C3)C2)C1 (mixture of isomers) [Example 327]
3. C[C@]1(O)C[C@@H](C(=O)N2CC3(CC(c4ccc5ccncc5c4)C3)C2)C1 [Example 30]
4. C[C@]1(O)C[C@@H](C(=O)N2CC3(CCC(c4ccc(OC(F)(F)F)cc4)C3)C2)C1 (mixture of isomers) [Example 52]
5. COc1cc(OC2CCC3(CC2)CN(C(=O)[C@H]2C[C@@](C)(O)C2)C3)ncc1Cl [Example 460]

## Result
1: 8.89; 2: 5.51; 3: 5.93; 4: 7.80; 5: 6.85

Fill in pIC50 for each of the 2 compounds listed.
1. CC(C)(C)c1ccnc(CC2CC3(C2)CN(C(=O)[C@H]2C[C@@](C)(O)C2)C3)c1 [Example 190]
2. Cc1ccc(OC2CCC3(C2)CN(C(=O)[C@H]2C[C@@](C)(O)C2)C3)nc1C(F)(F)F (mixture of isomers) [Example 336]

## Result
1: 7.14; 2: 7.04

----------
For each record, write down the corresponding IC50.
# Tgt: human MGL from HeLa cells (Homo sapiens (Human), UniProt Q99685)
# Test Summary: MGL in vitro activity assay ([glycerol-1,3-3H]-oleoyl glycerol hydrolysis, activated carbon filtration)
# Condition Info: 300 nM [Glycerol-1,3-3H]-oleoyl glycerol, one hour
One number for each entry, in nM.

Some entries whose results are on file:
Cc1ccc(C2CC3(C2)CN(C(=O)[C@H]2C[C@@](C)(O)C2)C3)cc1OC(F)(F)F = 45
CC(C)(C)c1cccc(C2CCC3(C2)CN(C(=O)[C@H]2C[C@@](C)(O)C2)C3)c1 (mixture of isomers) = 6.9

Fill in IC50 for each of the 2 compounds listed.
1. Cn1ncc2cccc(CC3CC4(C3)CN(C(=O)[C@H]3C[C@@](C)(O)C3)C4)c21
2. C[C@]1(O)C[C@@H](C(=O)N2CC3(CC(Cc4ccc(C5CC5)cc4)C3)C2)C1

## Result
1: 70; 2: 1.2

----------
# Tgt: human MGL from HeLa cells (Homo sapiens (Human))
# Test Summary: MGL in vitro activity assay ([glycerol-1,3-3H]-oleoyl glycerol hydrolysis, activated carbon filtration)
# Condition Info: 300 nM [Glycerol-1,3-3H]-oleoyl glycerol, one hour
For each record, write down the corresponding pIC50.
Numbers only, as −log10 of the molar value.

Some entries whose results are on file:
Cc1cn(C)c2nc(CC3CC4(C3)CN(C(=O)[C@H]3C[C@@](C)(O)C3)C4)ccc12 [Example 291] = 8.42
COc1cc([C@H]2CCC3(C2)CN(C(=O)[C@H]2C[C@@](C)(O)C2)C3)ccc1C (stereo in doubt) [Example 19] = 7.17
CC(C)c1ccc(CC2CCC3(C2)CN(C(=O)[C@H]2C[C@@](C)(O)C2)C3)cc1 (mixture of isomers) [Example 170] = 8.00

## Task Tell me the measured pIC50 of Cc1c(F)cccc1C1CCC2(CC1)CN(C(=O)[C@H]1C[C@@](C)(O)C1)C2 [Example 359] , please.
## Result 7.74
